Each recorded value in this set is attributed to PubChem BioAssay (NCI).

System: SK-MEL-2 melanoma
Assay: NCI tumour cell line growth inhibition, 48 h; in the data active = GI50 below about 0.43 µM; inactive = the rest
Labels: yes for active, no for inactive

In [3]: df
Out[3]:
                                   compound  assigned_label
0  O=C1C2C(C(=O)[N]1[Hg][c]1ccccc1)C1(Cl)C(Cl)=C(Cl)C2(Cl)C1(Cl)Cl (stereo not drawn)              no
1                  NC1=CC(=O)C(=O)c2cccnc21              no
2  C/C1=C\CC[C@@](C)(O)[C@H]2C[C@H](CC/C(C)=C/CC1)C1(CC1)C(=O)O2              no
3  COC(=O)[C@]12CC[C@@H](C)[C@H](C)[C@@H]1C1=CC[C@@H]3[C@@]4(C)C(c5ncon5)=C[C@@](C)(CO)C4=CC[C@@]3(C)[C@]1(C)CC2              no
4  c1ccc(-c2n(Cc3ccc4ccccc4n3)c3ccccc3[n+]2Cc2ccc3ccccc3n2)cc1             yes
5  CC(C)(C)c1ccc(C(=O)N/N=C/c2ccc(O)cc2O)cc1              no
6      COC(=O)c1[nH]nc(-c2ccccc2)c1N1CCCCC1              no
7  O=C(Cc1ccccc1)Nc1nnc(CCSCCc2nnc(NC(=O)Cc3ccccc3)s2)s1              no

====

System: U251 CNS
Assay: NCI tumour cell line growth inhibition, 48 h
TGI values, listed per item
Quantity Name: TGI

                                   compound  tested_target  test_result
0   COc1ccc(C(=O)Nc2ncc(Cc3ccc(F)cc3)s2)cc1       U251 CNS    > 89.1 µM
1  CC(=O)c1ccc(NC(=O)/C(=N\NC(N)=O)C(C#N)CC(C)(C)C=O)cc1 (centres undefined)       U251 CNS     > 100 µM
2               O=C(NN=C1CCCCC1)Nc1ccccc1Cl       U251 CNS     > 100 µM
3  Cc1cc2nc3ccc(N=Nc4ccc(N(C)C)cc4)cc3n(-c3ccccc3)c-2cc1=N       U251 CNS     0.114 µM

====

TGI values, listed per item
Test system: T-47D breast
Test: NCI tumour cell line growth inhibition, 48 h
Quantity Name: TGI (µM)

In [3]: df
Out[3]:
                                   compound  prefix_operator  test_result
0  COc1cc(C(=O)/C=C/c2c(-c3ccc(F)cc3)nc3sccn23)cc(OC)c1OC                =         14.3
1             Cc1cc(NC2=NCCO2)c2c(c1C)CCCC2                =         76.5
2  CC12C=CC(C)(O1)C1C2c2ccccc2S1(=O)=O (stereo unspecified)                >          100
3  CCCCCC(/C=C/[C@@H]1CC(=O)C[C@H]1O[Si](C)(C)C(C)(C)C)OCOCCOC (stereo partly specified)                =           44
4  CC(C)[C@@H](C(=O)O[C@@H]1/C=C/C(=O)O[C@@H](C)CCC/C=C/[C@@H]2C[C@H](O)C[C@H]21)[N+](C)(C)C                >          100
5           CCOC(=O)Nc1nc2c(F)c(F)c(F)cc2s1                >          100

====

System: HS 578T breast
Test: NCI tumour cell line growth inhibition, 48 h; in the data active = GI50 below about 0.43 µM; inactive = the rest
Labels: active, inactive

In [3]: df
Out[3]:
                                    compound  assigned_label
 0  COC(=O)[C@]12CC[C@@H](C)[C@H](C)[C@@H]1C1=CC[C@@H]3[C@@]4(C)C(c5ncon5)=C[C@@](C)(CO)C4=CC[C@@]3(C)[C@]1(C)CC2        inactive
 1  COc1ccc(N2CCN(CC(=O)N3CCN(c4nnc(-c5ccccc5)c(-c5ccccc5)n4)CC3)CC2)cc1        inactive
 2  COC(=O)C1CC2(c3ccc(C)cc3)C(c3ccc(C)cc3)=C(c3ccc(C)cc3)C1(c1ccc(C)cc1)S2=O (centres undefined)        inactive
 3  COc1cc(Nc2ncc3c(n2)-c2ccc(Cl)cc2C(c2c(F)cccc2OC)=NC3)ccc1C(=O)O        inactive
 4  C/C1=C\CC[C@@](C)(O)[C@H]2C[C@H](CC/C(C)=C/CC1)C1(CC1)C(=O)O2        inactive
 5  Cc1ccc(C(=O)Nc2ccc(CN3CCN(C)CC3)c(C(F)(F)F)c2)cc1C#Cc1cncc2ncccc12          active
 6                  NC1=CC(=O)C(=O)c2cccnc21        inactive
 7      COC(=O)c1[nH]nc(-c2ccccc2)c1N1CCCCC1        inactive
 8       Cc1cc(-c2ccccc2)c(C)n1Cc1ccc(Cl)cc1        inactive
 9           CCOC(=O)Nc1nc2c(F)c(F)c(F)cc2s1        inactive
10   Cc1sc2nc(-c3ccccn3)c(/C=N/N=C(N)N)n2c1C        inactive
11  CC(C)[C@@H](C(=O)O[C@@H]1/C=C/C(=O)O[C@@H](C)CCC/C=C/[C@@H]2C[C@H](O)C[C@H]21)[N+](C)(C)C        inactive
12  Cc1cc2nc3ccc(N=Nc4ccc(N(C)C)cc4)cc3n(-c3ccccc3)c-2cc1=N          active
13  COc1cc(/C=C/C(=O)c2c(C)n([O-])c3cc(C)c(C)cc3[n+]2=O)cc(OC)c1OC        inactive
14  O=C(Cc1ccccc1)Nc1nnc(CCSCCc2nnc(NC(=O)Cc3ccccc3)s2)s1        inactive
15  O=C1C2C(C(=O)[N]1[Hg][c]1ccccc1)C1(Cl)C(Cl)=C(Cl)C2(Cl)C1(Cl)Cl (centres undefined)        inactive
16  CC(=O)NNC(=O)c1nn(-c2ccc(Cl)cc2)cc1OC(C)=O        inactive
17  CC(=O)OCCC/C(=C\c1ccc2ccccc2c1)[N+](=O)[O-]        inactive
18  CC12C=CC(C)(O1)C1C2c2ccccc2S1(=O)=O (centres undefined)        inactive

====

TGI values, listed per item
Tested on: HOP-92 NSCLC
Test: NCI tumour cell line growth inhibition, 48 h

Molecule	TGI
N=C(N)n1[nH]c2c(c1=O)CCC2	> 100 µM
Cc1cccc2c(N)c3cccc(C(=O)NCC[N+](C)(C)Cc4sc(N5CCOCC5)nc4[N+](=O)[O-])c3nc12	> 100 µM
Brc1cccc(C2(CCCC3(c4cccc(Br)n4)OCCO3)OCCO2)n1	> 100 µM
O=C1C[C@H](c2ccccc2)C2(C(=O)c3ccccc3C2=O)[C@@H](c2ccccc2)C1	90.9 µM
CCOC(=O)/C=C(/C(=O)OCC)n1c(=O)c(C)cn(C2CC(N=[N+]=[N-])C(CO)O2)c1=O (stereo not drawn)	76.6 µM
Cc1cn(C2C=CC(=O)C(C)O2)c(=O)[nH]c1=O (stereo not drawn)	29.5 µM
COc1ccc(C2C(C(=O)O)=C(COC(C)=O)Oc3cc4c(cc32)OCO4)cc1 (stereo not drawn)	> 100 µM
C#CCOCn1cnc2ncnc(Cl)c21	> 100 µM
COC(=O)C1=C(OC(=O)/C(=C/c2ccc(Cl)cc2)c2ccccc2)C(C(=O)OC)[C@@]2(O)[C@@H](C(=O)OC)[C@H](C)C[C@@H]1[C@@H]2C(=O)OC (stereo partly drawn)	> 100 µM
Clc1ccccc1-c1nc2ccccc2[nH]1	> 100 µM
COc1ccc(N2CCN(CC(=O)N3CCN(c4nnc(-c5ccccc5)c(-c5ccccc5)n4)CC3)CC2)cc1	> 94.4 µM
O=C(c1ccc(Cl)cc1)N(Cc1cccnc1)C(=S)N(Cc1cccnc1)C(=O)c1ccc(Cl)cc1	> 100 µM
O=C(c1ccc(O)cc1)c1ccc(C(=O)c2ccc(O)cc2)cc1	> 100 µM

====

Test system: OVCAR-5 ovarian
Experiment: NCI tumour cell line growth inhibition, 48 h
TGI values, listed per item
Quantity Name: TGI

>>> print(df.to_string())
                               input_smiles  test_result
0        Cc1nc2ccccc2c(=O)n1NC(=O)Cc1ccccc1     > 100 µM
1  Cc1c(N2C(=O)/C(=C\c3ccc(O)cc3)N=C2c2ccccc2)c(=O)n(-c2ccccc2)n1C     > 100 µM
2  COc1cc(NCC(C#N)C#N)ccc1N=Nc1ccc([N+](=O)[O-])cc1     > 100 µM
